- STUDY SYSTEM: UniProt:P35372
- ASSAY: competitive radioligand binding with [3H]diprenorphine, membranes of transfected HEK 293T cells
- Set-up: expressed in transfected cells; host or cells: HEK 293T cells, transient transfection, membrane preparation
Decide using Ki alone. Strictly below 30 nM: T. Equal to or above 30 nM: F.

Please determine if Cc1cc(O)cc(C)c1C[C@H](N)CNC(=O)/C=C/c1ccccc1 [Example 10] is below 30 nM in terms of Ki.
F

Given the entry CN(C)[C@H](COC(=O)C=Cc1ccccc1)Cc1ccc(O)cc1 (stereo in doubt) [Comparative Example 2, reference compound] , would its reported Ki be below 30 nM?
F

Regarding CN(C)[C@H](CNC(=O)/C=C/c1ccccc1C(F)(F)F)Cc1ccc(O)cc1 [Example 7] , kindly confirm whether its Ki is beneath 30 nM.
T

Is it true that Ki reported for CN(C)[C@H](CNC(=O)/C=C/c1cccc(C(F)(F)F)c1)Cc1ccc(C(N)=O)cc1 [Example 15] is less than 30 nM?
T

For this molecule, is Ki lower than 30 nM? Cc1cccc(/C=C/C(=O)NC[C@H](Cc2ccc(O)cc2)N(C)C)c1 [Example 13]
T

Item C/C(=C\c1ccccc1)C(=O)NC[C@H](Cc1ccc(O)cc1)N(C)C [Example 4] : Ki beneath 30 nM, strictly?
F

Does the reported Ki of the following molecule sit strictly below 30 nM? CN(C)[C@H](CNC(=O)C=Cc1ccccc1)Cc1ccc(O)cc1 (stereo in doubt) [Example 1]
T

Take the molecule CN(C)[C@H](CNC(=O)/C=C/c1cccc2ccccc12)Cc1ccc(C(N)=O)cc1 [Example 18] and say whether its Ki is less than 30 nM.
T

Please indicate whether the reported Ki of C/C(=C\C(=O)NC[C@H](Cc1ccc(O)cc1)N(C)C)c1ccccc1 [Example 3] is strictly below 30 nM.
T

---

- STUDY SYSTEM: µOR (Homo sapiens)
- ASSAY: G-protein mediated signaling, IP1 accumulation assay (HTRF) in HEK-293T cells with hybrid G-protein Gαqi
- Type: cell-based
- Design: expressed in transfected cells; host or cells: HEK-293T cells, transient transfection
- MEASUREMENT SETUP: HEK-293T, read-out: G-protein signaling Emax
- Text: Functionally selective drugs, which are biased towards Gi protein activation over β-arrestin signaling at the µOR are indicated to show an improved side effect profile. […] In the above table, the numbers indicate mean EC50 values in nM and Emax values relative to the full effect of reference agonist DAMGO [=100%], respectively and are derived from 3-9 individual experiments for G-protein signaling and 3-8 tests for arrestin recruitment. ND = not determined.
READOUT KIND: Emax (%)
Field format: number, assumed %, no unit text.

Could you share what Emax was measured for CN(C)[C@H](CNC(=O)/C=C/c1ccc(F)c(C(F)(F)F)c1)Cc1ccc(O)cc1 , tested on µOR (Homo sapiens)?
102

API: value(readout=Emax, system=µOR (Homo sapiens)) for record CN(C)[C@H](CNC(=O)/C=C/c1ccccc1C(F)(F)F)Cc1ccc(O)cc1
44

// map Cc1cccc(/C=C/C(=O)NC[C@H](Cc2ccc(O)cc2)N(C)C)c1 to recorded Emax (system: µOR (Homo sapiens))
78

Reported Emax for µOR (Homo sapiens), given CN(C)[C@H](CNC(=O)/C=C/c1cccc(C(F)(F)F)c1)Cc1ccc(O)cc1 ?
100

Field: Emax (µOR (Homo sapiens)). Entry: NC(=O)c1ccc(C[C@H](N)CNC(=O)/C=C/c2cccc(C(F)(F)F)c2)cc1
75

Lab note: need Emax with µOR (Homo sapiens) for entry C/C(=C\c1ccccc1)C(=O)NC[C@H](Cc1ccc(O)cc1)N(C)C , please look it up.
62

Test system µOR (Homo sapiens); read-out Emax; what value for C/C(=C\C(=O)NC[C@H](Cc1ccc(O)cc1)N(C)C)c1ccccc1 ?
76

Give µOR (Homo sapiens) Emax for CN(C)[C@H](CNC(=O)/C=C/c1cccc(C(F)(F)F)c1)Cc1ccc(C(N)=O)cc1
95

---

- STUDY SYSTEM: µOR (Homo sapiens)
- ASSAY: β-arrestin-2 recruitment, enzyme-fragment complementation assay in HEK-293 cells
- Type: cell-based
- Parameters: expressed in transfected cells; host or cells: HEK-293 cells stably expressing EA-tagged β-arrestin-2, transiently transfected with µOR-PK1
- MEASUREMENT SETUP: HEK293; relative to the full effect of reference agonist DAMGO [=100%]
READOUT KIND: Emax

What does the record list as Emax for CN(C)[C@H](CNC(=O)/C=C/c1ccccc1C(F)(F)F)Cc1ccc(O)cc1 [Example 7] ?
< 5%

# query: Emax of entry CN(C)[C@H](CNC(=O)/C=C/c1ccc(C(F)(F)F)cc1)Cc1ccc(O)cc1 [Example 9]
< 5%

Which Emax is listed for CN(C)[C@H](CNC(=O)/C=C/c1ccsc1)Cc1ccc(O)cc1 [Example 19] ?
< 5%

---

- STUDY SYSTEM: µOR (Homo sapiens, UniProt P35372)
- Sequence (P35372 whole entry): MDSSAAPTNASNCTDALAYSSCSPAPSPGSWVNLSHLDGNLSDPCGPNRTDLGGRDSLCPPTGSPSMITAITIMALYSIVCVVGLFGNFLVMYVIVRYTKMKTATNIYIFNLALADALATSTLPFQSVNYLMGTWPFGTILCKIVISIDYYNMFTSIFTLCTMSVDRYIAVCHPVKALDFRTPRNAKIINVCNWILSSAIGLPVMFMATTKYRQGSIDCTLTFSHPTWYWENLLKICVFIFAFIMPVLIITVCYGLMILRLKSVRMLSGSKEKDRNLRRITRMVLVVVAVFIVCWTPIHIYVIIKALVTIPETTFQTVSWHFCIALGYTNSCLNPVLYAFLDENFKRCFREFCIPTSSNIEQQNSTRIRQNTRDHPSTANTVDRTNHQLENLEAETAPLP
- ASSAY: G-protein mediated signaling, IP1 accumulation assay (HTRF) in HEK-293T cells with hybrid G-protein Gαqi
- Assay type: cell-based
- Design: expressed in transfected cells; host or cells: HEK-293T cells, transient transfection
For each of the molecules below, state its EC50.
Reply with just the number (in nM).

Recall the recorded EC50 for Cc1cccc(/C=C/C(=O)NC[C@H](Cc2ccc(O)cc2)N(C)C)c1 with µOR (Homo sapiens, UniProt P35372) and state it.
41

Please provide the recorded EC50 for CN(C)[C@H](CNC(=O)/C=C/c1cccc(C(F)(F)F)c1)Cc1ccc(O)cc1 , tested on µOR (Homo sapiens, UniProt P35372).
15

For µOR (Homo sapiens, UniProt P35372), provide EC50 of C/C(=C\C(=O)NC[C@H](Cc1ccc(O)cc1)N(C)C)c1ccccc1 please.
11

---

- STUDY SYSTEM: µOR (Homo sapiens)
- ASSAY: G-protein mediated signaling, IP1 accumulation assay (HTRF) in HEK-293T cells with hybrid G-protein Gαqi
- Format: cell-based
- Set-up: expressed in transfected cells; host or cells: HEK-293T cells, transient transfection
- MEASUREMENT SETUP: HEK-293T, read-out: G-protein signaling Emax
I'd be grateful if you could share measured Emax for these entries.

Which Emax is listed for CN[C@H](CNC(=O)/C=C/c1cccc(C(F)(F)F)c1)Cc1c(C)cc(O)cc1C [Example 12] ?
< 5%

Item Cc1cc(O)cc(C)c1C[C@H](N)CNC(=O)/C=C/c1cccc(C(F)(F)F)c1 [Example 11] has what recorded Emax?
< 5%

Return reported Emax; argument: Cc1cc(O)cc(C)c1C[C@H](N)CNC(=O)/C=C/c1ccccc1 [Example 10]
< 5%
